# experiment notes: NCI Yeast Anticancer Drug Screen. Data for the rad52 strain (AID 147)
# experimental setup: S. cerevisiae rad52 mutant growth inhibition; at 100.0 µM; stronger effect = higher value
About 79,000 compounds went through this panel and 15% of them were active in at least one assay; those are over-represented in the sample as a whole.
Lab note: compare growth inhibition against 80%. Equal or greater, write YES. Smaller, write NO.

INSERT INTO assay_data (compound, label) VALUES
  ('C/C(=N\NC(=S)NNC(=S)N(C)c1ccccc1)c1ccccn1', 'YES'),
  ('O=[N+]([O-])c1cccc2nc3ccccc3c(NCCc3cccc[n+]3[O-])c12', 'YES'),
  ('S=c1cn[nH]c2ccc(Br)cc12', 'NO'),
  ('O=C1OC2C(O)COC2(OCc2c[nH]c3ccccc23)C1O (stereo not given) (tested in a mixture with another compound)', 'YES'),
  ('CCCCCCSc1nc(COC(=O)NC)c(COC(=O)NC)n1C', 'YES'),
  ('NCc1c(O)ccc2ccccc12', 'YES'),
  ('Nc1cc(F)cc2c1-c1ccc(F)cc1C2', 'YES'),
  ('Cc1cc(C)c(N2C(=O)CC(Sc3ccccc3N)C2=O)c(C)c1 (stereo not given)', 'NO'),
  ('CC1=CC2C(C(C)C)CC1C1C(=O)OC(=O)C21 (stereo not given)', 'NO'),
  ('CCn1ncc(N=O)c1N', 'NO'),
  ('Clc1cc(Cc2ccc(N=C/C=C/c3ccccc3)c(Cl)c2)ccc1N=C/C=C\c1ccccc1', 'NO'),
  ('NC(N)=N/N=C/c1cc(Cl)cc(Cl)c1O', 'YES'),
  ('COc1cc(NCc2ccc3nc(N)nc(N)c3c2C)cc(OC)c1OC', 'NO'),
  ('CC(C)(C)c1ccc(O)c(C(c2ccc([N+](=O)[O-])cc2)c2cc(C(C)(C)C)ccc2O)c1', 'YES'),
  ('COc1ccc(S(=O)(=O)N/N=C\c2cc([N+](=O)[O-])cc(I)c2O)c(OC)c1OC', 'YES'),
  ('O=Nn1c2ccccc2c2ccccc21', 'NO'),
  ('O=c1[nH]cc(/C=N\Nc2ccccc2)c(=O)[nH]1', 'NO'),
  ('COC(=O)/C=C1/OC(c2ccc(Br)cc2)=C(Br)C1=O', 'NO');
